target: rat squalene epoxidase (Rattus norvegicus); construct: Livers were extracted and homogenized; microsomes solubilized with 2 % Triton X-100, 105000 x g supernatant; test: Squalene epoxidase inhibiting activity (3H-squalene to squalene-2,3-epoxide, solubilized liver microsome fraction); settings: 8 µM 3H-squalene, 37 °C, 30 minutes, read-out: 50 % inhibitory concentration (IC50)
Sequence (P52020 whole entry): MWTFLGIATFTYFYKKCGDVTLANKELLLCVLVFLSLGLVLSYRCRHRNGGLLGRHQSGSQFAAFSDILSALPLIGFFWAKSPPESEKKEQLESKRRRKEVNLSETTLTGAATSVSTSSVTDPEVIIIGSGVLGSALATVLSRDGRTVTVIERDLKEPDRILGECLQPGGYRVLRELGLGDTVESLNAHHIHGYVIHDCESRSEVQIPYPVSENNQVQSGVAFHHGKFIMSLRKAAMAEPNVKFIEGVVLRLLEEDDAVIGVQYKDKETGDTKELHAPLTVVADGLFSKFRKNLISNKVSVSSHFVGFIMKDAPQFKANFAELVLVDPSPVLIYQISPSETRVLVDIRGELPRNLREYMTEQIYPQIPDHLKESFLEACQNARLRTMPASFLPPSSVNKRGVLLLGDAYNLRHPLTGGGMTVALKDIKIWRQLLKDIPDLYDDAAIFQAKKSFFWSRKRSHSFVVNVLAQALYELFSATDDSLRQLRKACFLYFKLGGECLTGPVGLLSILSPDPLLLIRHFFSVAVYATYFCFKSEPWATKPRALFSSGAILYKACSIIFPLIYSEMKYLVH
Property: IC50 (nM)
Kindly answer with a numeric value in nM, unit omitted.

- CC(Oc1cccc(CN(C)C/C=C/C#CC(C)(C)C)c1)c1ccccc1 (stereo not shown) [Compound 16]: 1400

**Query** Any idea what IC50 was measured for CN(C/C=C/C#CC(C)(C)C)Cc1cccc(/C=C/c2cccc3ccccc23)c1 [Compound 100] ?
**Result** 120

**Query** Thanks! And CN(C/C=C/C#CC(C)(C)C)Cc1cccc(OCc2cccc3ccccc23)c1 [Compound 18] ?
**Result** 250

**Query** Thanks! And CN(C/C=C/C#CC(C)(C)C)Cc1cccc(OCc2cccc(-c3cnco3)c2)c1 [Compound 78] ?
**Result** 63
